I'd appreciate it if you could supply abundance fitness values for the items below.
B1: KAT8 regulatory NSL complex subunit 2, residues 28 to 91; numbered along this chain, Q9H9L4 (parent)
chain: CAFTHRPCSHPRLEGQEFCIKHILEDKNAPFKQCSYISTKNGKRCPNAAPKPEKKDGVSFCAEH

# Variants of: B1
# PROTOCOL_TEXT: abundance fitness (aPCA) (normalised: wild type 0, dead -1); higher = more abundant; growth selection in yeast, the domain comes from the species named
# TEST_CONTEXT: Homo sapiens
Give bare numbers.

A selection of reference data follows.
INSERT INTO measurements (variant_string, value_measured) VALUES
  ('Y36F', -0.015),
  ('H10A', -0.126),
  ('K27H', -0.094),
  ('C34R', -0.578),
  ('I20H', -0.179),
  ('P46D', -0.155),
  ('E17Y', -0.106),
  ('P50N', -0.126);

Items follow; give abundance fitness for each.
1. S35L
2. A2G
3. I20C

-0.14
-0.101
-0.14

Report abundance fitness for each item below.
1. R44C
2. F18T

[-0.026, -0.408]

Go through the list and state abundance fitness for each entry.
1. I37R
2. S59A

[-0.045, -0.056]
